Reference for the values: the supplement of paper PMC11451515

test system: P12-Ichikawa; assay: cell viability relative to DMSO control; higher = less cytotoxic; settings: HPLM + 10% dialyzed FBS; 48 h; 15.4 µM
# note: boundary value 80% maps to not satisfied; cell viability below it maps to satisfied

- COc1cc2c(cc1-c1c(C)noc1C)ncc1[nH]c(=O)n([C@H](C)c3ccccn3)c12: satisfied
- O=NN(CCCl)C(=O)NCCCl: not satisfied
- C[C@H]1[C@H](NC(=O)/C(=N/OC(C)(C)C(=O)O)c2csc(N)n2)C(=O)N1[S+](=O)([O-])O: not satisfied
- C/C=C1\NC(=O)[C@H]2CSSCC/C=C\[C@H](CC(=O)N[C@H](C(C)C)C(=O)N2)OC(=O)[C@H](C(C)C)NC1=O: satisfied
- O=C(NOCC(O)CO)c1cc(Br)c(F)c(F)c1Nc1ccc(I)cc1F (configuration not stated): satisfied
- FC(F)(F)c1ccc(/C=C/c2nc(COc3ccc(CCCCn4ccnn4)cc3)co2)cc1: satisfied
